tested on: T-47D; assay: NCI in vitro 60-cell drug screen (SRB assay); format: cell-based; conditions: T-47D (Breast cancer); 10^-5 molar concentration; 48 hours
Short version: Growth percent at least 90% is criterion met, less is criterion not met.

[
  {
    "smiles.str": "CN(C)c1nc2ccccc2c2c(=O)c3cc(Cl)ccc3sc12",
    "assigned.category": "criterion not met"
  },
  {
    "smiles.str": "O=c1c2ccc(Cl)cc2sc2c(Cl)nc3ccccc3c12",
    "assigned.category": "criterion met"
  },
  {
    "smiles.str": "O=C(O)c1c(Sc2ccc(Cl)cc2)c(O)nc2ccccc12",
    "assigned.category": "criterion met"
  },
  {
    "smiles.str": "O=c1c2cc(Cl)ccc2sc2c(N3CCN(c4ccccc4)CC3)nc3ccccc3c12",
    "assigned.category": "criterion met"
  }
]

---

tested on: TK-10; experiment: NCI in vitro 60-cell drug screen (SRB assay); format: cell-based; conditions: TK-10 (Renal cancer); 10^-5 molar concentration; 48 hours

[
  {
    "smiles.str": "O=c1c2cc(Cl)ccc2sc2c(N3CCN(c4ccccc4)CC3)nc3ccccc3c12",
    "Growth percent / %": 112.45
  },
  {
    "smiles.str": "O=c1c2ccc(Cl)cc2sc2c(Cl)nc3ccccc3c12",
    "Growth percent / %": 108.56
  },
  {
    "smiles.str": "O=c1c2cc(Cl)ccc2sc2c(N3CCN(Cc4ccccc4)CC3)nc3ccccc3c12",
    "Growth percent / %": 124.99
  },
  {
    "smiles.str": "COc1nc2ccccc2c2c(=O)c3cc(Cl)ccc3sc12",
    "Growth percent / %": 113.30
  },
  {
    "smiles.str": "O=c1c2cc(Cl)ccc2sc2c(N3CCN(CCO)CC3)nc3ccccc3c12",
    "Growth percent / %": 93.19
  },
  {
    "smiles.str": "CN(C)c1nc2ccccc2c2c(=O)c3cc(Cl)ccc3sc12",
    "Growth percent / %": 64.75
  },
  {
    "smiles.str": "O=c1c2cc(Cl)ccc2sc2c(O)nc3ccccc3c12",
    "Growth percent / %": 113.26
  },
  {
    "smiles.str": "O=c1c2cc(Cl)ccc2sc2c(N3CCOCC3)nc3ccccc3c12",
    "Growth percent / %": 86.24
  },
  {
    "smiles.str": "CN1CCN(c2nc3ccccc3c3c(=O)c4cc(Cl)ccc4sc23)CC1",
    "Growth percent / %": 97.07
  },
  {
    "smiles.str": "O=C(O)c1c(Sc2ccc(Cl)cc2)c(O)nc2ccccc12",
    "Growth percent / %": 118.09
  }
]

---

tested on: A498; experiment: NCI in vitro 60-cell drug screen (SRB assay); assay type: cell-based; details: A498 (Renal cancer); 10^-5 molar concentration; 48 hours

[
  {
    "smiles.str": "COc1nc2ccccc2c2c(=O)c3cc(Cl)ccc3sc12",
    "subject.of.test": "A498",
    "Growth percent (%)": 96.29
  },
  {
    "smiles.str": "O=c1c2ccc(Cl)cc2sc2c(Cl)nc3ccccc3c12",
    "subject.of.test": "A498",
    "Growth percent (%)": 106.06
  },
  {
    "smiles.str": "CN(C)c1nc2ccccc2c2c(=O)c3cc(Cl)ccc3sc12",
    "subject.of.test": "A498",
    "Growth percent (%)": 97.06
  },
  {
    "smiles.str": "O=c1c2cc(Cl)ccc2sc2c(O)nc3ccccc3c12",
    "subject.of.test": "A498",
    "Growth percent (%)": 107.74
  },
  {
    "smiles.str": "O=c1c2cc(Cl)ccc2sc2c(N3CCOCC3)nc3ccccc3c12",
    "subject.of.test": "A498",
    "Growth percent (%)": 94.15
  }
]
